- Target or test system: T1, Recombinant human CD137/His (human, UniProt Q07011 24-186)
- T1 construct: Analyte of the SPR assay; also called 4-1BB; TNFRSF9; not shown: His tag
- Experimental protocol: SPR (Biacore), antibody captured on anti-human Fc, human CD137/His as analyte, 1:1 fit

Binder	kon [M⁻¹ s⁻¹]
anti-CD137 antibody D6 (antibody, V domains shown, Fully human antibody, captured through anti-human Fc in SPR and detected with anti-human Lambda in ELISA) VH: QMQLVQSGAEVKKPGASVKVSCKASGYTFTGYYMHWVRQAPGQGLEWMGWINPNSGGTNYAQKFQGRVTITRDTSASTAYMELSSLRSEDTAVYYCAREGEAVGLDLDYWGQGTLVTVSS VL: SYELTQPPSVSVAPGKTARITCGGNNIGSKSVHWYQQKPGQAPVLVIYYDSDRPSGIPERFSGSNSGNTATLTISRVEAGDEADYYCQVWDSSSVVFGGGTQLTVL	401000
anti-CD137 antibody MSB7 (antibody, V domains shown, Variant of D6 with the same light chain variable domain) VH: QMQLVQSGAEVKKPGASVKVSCKASGYSFSGYYMHWVRQAPGQGLEWMGWVNPMSGGTNYAQKFQGRVTITRDTSASTAYMELSSLRSEDTAVYYCAREGMAMRLELDKWGQGTLVTVSS VL: SYELTQPPSVSVAPGKTARITCGGNNIGSKSVHWYQQKPGQAPVLVIYYDSDRPSGIPERFSGSNSGNTATLTISRVEAGDEADYYCQVWDSSSVVFGGGTQLTVL	456000
anti-CD137 antibody MC8 (antibody, V domains shown, Variant of D6 with the same light chain variable domain) VH: QMQLVQSGAEVKKPGASVKVSCKASGYMPDGYYMHWVRQAPGQGLEWMGWINPRTGGTNYAQKFQGRVTITRDTSASTAYMELSSLRSEDTAVYYCAREGAAFRLELDAWGQGTLVTVSS VL: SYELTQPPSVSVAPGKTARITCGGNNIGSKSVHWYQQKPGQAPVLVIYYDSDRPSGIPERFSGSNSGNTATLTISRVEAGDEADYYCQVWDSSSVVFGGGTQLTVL	208000
